assay procedure: protein stability index of a GFP-peptide fusion (GPS, HEK-293T) (PSI 1-6); higher = more stable;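 further: 24-mer peptide tiles fused after GFP, lentivirally expressed, FACS-sorted into six equal bins by GFP/DsRed ratio, decoded by Illumina sequencing, PSI is the read-weighted mean bin number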
recorded conditions: treatment: DMSO; c terminus: a fixed tail appended
parameter measured: protein stability index

Illustrative cases are given below, each with its answer.
Supply reported protein stability index belonging to this sequence: KDHSSSRPSSPRPQKASPNGSISS [BTBD10] 5.1

Supply reported protein stability index belonging to this sequence: LCCEWLRPEKHTKEQILEFLVLEQ [ZNF232] 2.23

Supply reported protein stability index belonging to this sequence: QSRANGVKYPELVLEHSLDREEEA [PCDHGA10] 5.29

Supply reported protein stability index belonging to this sequence: LNSVERYDPKTNQWSSDVAPTSTC [KLHL20] 4.18

Supply reported protein stability index belonging to this sequence: SLALGDLIYVVIDLPINVFKLLAG [EDNRA] 2.59

Supply reported protein stability index belonging to this sequence: SLIRKHAQTFIALCATDFKFAMYP [CCND2] 3.01

Supply reported protein stability index belonging to this sequence: DYELEDETRPAKRITITESNMKSR [WEE1] 4.74

Supply reported protein stability index belonging to this sequence: ALVAPLLRLENNHCHIEESEHVLK [VPS39] 3.26

Supply reported protein stability index belonging to this sequence: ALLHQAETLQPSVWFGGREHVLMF [TMEM175] 2.28

Supply reported protein stability index belonging to this sequence: EFIMPDSAVVGDVLVLTKPLGTQV [SEPHS2] 2.3

Give one value of protein stability index per listed sequence.
1. AGLVHVKQCIVAHPVNPPYYIPLV [CRYL1]
2. NPVFQDSWDTESSGSDSGGSSSSS [FAM104A]
3. HLTRGRKMAHVIAACLYLVCRTEG [BRF1]
4. SISEKLSSTNFAMKRDVQEGQARC [C8orf76]

1: 2.46; 2: 5.37; 3: 2.53; 4: 4.41

Give one value of protein stability index per listed sequence.
1. DRDMFFKICESLNVPVDDSLVKEL [EFHC1]
2. PVYVSCIAQDTCTTTDHSSNPGPV [SPAG8]
3. VGKGEILESLQDGAAESPYAYSNG [RAB40C]
4. GQCLDSTDQLEFTVEPRLLVADLL [RTN2]
5. FERIMKYERLARILLQEIPIRSIS [FBXO39]

[3.22, 3.75, 4.88, 2.91, 2.73]

Give one value of protein stability index per listed sequence.
1. APPAKLACPVCSKMVPRYDLNRHL [FAN1]
2. QLPPASRCVLVFEQVRFLMKSYSF [SOAT2]
3. LLGLGVLLFSGGLSESETGPMEEV [PBXIP1]
4. RALEEANTELEVKIRDWYQRQAPG [KRT17]
5. SEEAVREVHRLIEGKAPIISGVTK [TPPP]
6. LSVSNNQEPDFIDDIEEKTPISNE [KMT2E]
7. QKVVVTTPLHRDKTPLHQKHAAFV [MYBL2]
8. AGPGAPEPLAEGAAAEFSSLLRRI [SLC35F2]

[2.39, 2.71, 2.22, 3.37, 4.44, 4.69, 3, 3.9]
